# credit: paper PMC5645021

- System Under Test: oncogenic mutant K-Ras (mGFP-K-RasG12 V) (Homo sapiens, UniProt P01116, G12V)
- Sequence (P01116 1-188 isoform P01116-2 G12V): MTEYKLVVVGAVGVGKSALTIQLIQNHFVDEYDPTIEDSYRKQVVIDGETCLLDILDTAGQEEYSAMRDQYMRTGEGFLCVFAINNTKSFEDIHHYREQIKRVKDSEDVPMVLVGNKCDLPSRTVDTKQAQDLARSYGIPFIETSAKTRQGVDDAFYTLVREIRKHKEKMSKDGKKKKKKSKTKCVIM
- Run Description: K-Ras PM mislocalization
- Test Parameters: read-out: K-Ras PM mislocalization IC50; mGFP-K-RasG12V in intact MDCK cells
In plain terms, low IC50, meaning strictly below 4 nM, gives YES, and everything else gives NO.

Worked set:
CCCC[C@H]1C(=O)O[C@H](C)[C@H](NC(=O)c2cccc(NC=O)c2O)C(=O)O[C@@H](C)[C@@H]1OC(=O)C(C)C [compound 6, antimycin A4a, reference compound]	YES
CCCCCC[C@H]1C(=O)O[C@H](C)[C@H](NC(=O)c2cccc(NC=O)c2O)C(=O)O[C@@H](C)[C@@H]1OC(=O)C(C)C [compound 5, antimycin A2a, reference compound]	NO
CCC(C)C1OC(=O)C(NC(=O)c2cccc(NC=O)c2O)C(C)OC(=O)C(C(C)CC)OC(=O)C(C)(C)C(O)C(Cc2ccccc2)OC1=O (stereo not shown) [compound 3, neoantimycin G]	NO
CC(C)[C@@H]1OC(=O)[C@@H](NC(=O)c2cccc(NC=O)c2O)[C@H](C)OC(=O)[C@H](C(C)C)OC(=O)C(C)(C)[C@@H](O)[C@@H](Cc2ccccc2)OC1=O [compound 2, neoantimycin F]	NO
CC[C@H](C)[C@@H]1OC(=O)C(C)(C)C(=O)[C@@H](Cc2ccccc2)OC(=O)[C@H](C(C)C)OC(=O)[C@@H](NC(=O)c2cccc(NC=O)c2O)[C@@H](C)OC1=O [compound 4, neoantimycin H]	NO
CC[C@H](C)[C@@H]1OC(=O)C(C)(C)[C@@H](O)[C@@H](Cc2ccccc2)OC(=O)[C@H](C(C)C)OC(=O)[C@@H](NC(=O)c2cccc(NC=O)c2O)[C@H](C)OC1=O [compound 1, neoantimycin]	YES

Is IC50 strictly under 4 nM for the entry CCC(C)[C@@H]1OC(=O)[C@H](C)OC(=O)[C@@H](NC(=O)c2cccc(NC=O)c2O)[C@@H](C)OC(=O)[C@H](CC(C)C)OC(=O)C(C)(C)C(=O)[C@H](CC(C)C)NC1=O (stereo partly shown) [compound 7, respirantin, reference compound] ?
YES

----------
- System Under Test: oncogenic mutant K-Ras (mGFP-K-RasG12 V) (Homo sapiens, UniProt P01116, G12V)
- Run Description: K-Ras PM mislocalization
- Type: cell-based
- Test Parameters: maximum extent of mislocalization of K-Ras from the PM to the endomembrane; MDCK cells
Readout Type: K-Ras PM mislocalization Emax
Field format: numeric only.

CC(C)[C@@H]1OC(=O)[C@@H](NC(=O)c2cccc(NC=O)c2O)[C@H](C)OC(=O)[C@H](C(C)C)OC(=O)C(C)(C)[C@@H](O)[C@@H](Cc2ccccc2)OC1=O [compound 2, neoantimycin F]	0.56
CCC(C)[C@@H]1OC(=O)[C@H](C)OC(=O)[C@@H](NC(=O)c2cccc(NC=O)c2O)[C@@H](C)OC(=O)[C@H](CC(C)C)OC(=O)C(C)(C)C(=O)[C@H](CC(C)C)NC1=O (stereo partly shown) [compound 7, respirantin, reference compound]	0.78

Give reported K-Ras PM mislocalization Emax for CCCCCC[C@H]1C(=O)O[C@H](C)[C@H](NC(=O)c2cccc(NC=O)c2O)C(=O)O[C@@H](C)[C@@H]1OC(=O)C(C)C [compound 5, antimycin A2a, reference compound] (oncogenic mutant K-Ras (mGFP-K-RasG12 V) (Homo sapiens, UniProt P01116, G12V))
0.78

GET K-Ras PM mislocalization Emax | system: oncogenic mutant K-Ras (mGFP-K-RasG12 V) (Homo sapiens, UniProt P01116, G12V) | item: CC[C@H](C)[C@@H]1OC(=O)C(C)(C)[C@@H](O)[C@@H](Cc2ccccc2)OC(=O)[C@H](C(C)C)OC(=O)[C@@H](NC(=O)c2cccc(NC=O)c2O)[C@H](C)OC1=O [compound 1, neoantimycin]
0.60

Name the value of K-Ras PM mislocalization Emax reported for CC[C@H](C)[C@@H]1OC(=O)C(C)(C)C(=O)[C@@H](Cc2ccccc2)OC(=O)[C@H](C(C)C)OC(=O)[C@@H](NC(=O)c2cccc(NC=O)c2O)[C@@H](C)OC1=O [compound 4, neoantimycin H] when tested on oncogenic mutant K-Ras (mGFP-K-RasG12 V) (Homo sapiens, UniProt P01116, G12V).
0.60

Provide the reported K-Ras PM mislocalization Emax (system: oncogenic mutant K-Ras (mGFP-K-RasG12 V) (Homo sapiens, UniProt P01116, G12V)) for CCCC[C@H]1C(=O)O[C@H](C)[C@H](NC(=O)c2cccc(NC=O)c2O)C(=O)O[C@@H](C)[C@@H]1OC(=O)C(C)C [compound 6, antimycin A4a, reference compound]
0.79

Recall the reported K-Ras PM mislocalization Emax of CCC(C)C1OC(=O)C(NC(=O)c2cccc(NC=O)c2O)C(C)OC(=O)C(C(C)CC)OC(=O)C(C)(C)C(O)C(Cc2ccccc2)OC1=O (stereo not shown) [compound 3, neoantimycin G] on oncogenic mutant K-Ras (mGFP-K-RasG12 V) (Homo sapiens, UniProt P01116, G12V) and write it down.
0.62
